test: chemical genetic growth profiling, strain panel (AID 1159580);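 further: tested at 20 µM; growth read once vehicle control cultures reached saturation at 30 °C; 1 = growth at the plate median or of vehicle wells; lower values mean less growth of the strain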; settings: S. cerevisiae deletion strains, growth OD, locus YJL115W, strain asf1, active compounds read low
The whole screen tested about 5,500 compounds, of which about 2,000 (36%) were called active. Another 18% or so got no clear call; they are omitted. Some of the results follow.
READOUT KIND: normalized growth
Format: numeric value only, no unit, no commentary.

# annotated cases, reported normalized growth shown
> print(dat)
                                   compound       readout.kind  test.result
1  CC(C)c1ccc2c(c1)CCC1[C@](C)(CN)CCC[C@]21C (stereo not given in full)  normalized growth         1.01
2  COC(=O)/C(=C1\OC(=O)C(c2ccccc2)=C1O)c1ccccc1  normalized growth        0.974
3  CC(C)=CCc1c2c(c3occ(-c4ccc(O)c(O)c4)c(=O)c3c1O)C=CC(C)(C)O2  normalized growth        0.999
4  C=C1c2cccc(O)c2C(O)=C2C(=O)[C@]3(O)C(O)=C(C(N)=O)C(=O)[C@@H](N(C)C)[C@@H]3[C@@H](O)[C@H]12  normalized growth         1.03
5                   COc1cc(C(C)=O)cc(OC)c1O  normalized growth         1.02
6  CC(C)=CCc1c2c(c3occ(-c4ccc(O)cc4)c(=O)c3c1O)C=CC(C)(C)O2  normalized growth         1.01
7    CC(=O)Nc1ccc(S(=O)(=O)Nc2onc(C)c2C)cc1  normalized growth        0.964
8  CC(=O)O[C@H]1CC[C@@]2(C)C(=CC(=O)C3C4CCC(C(C)CCCC(C)C)[C@@]4(C)CCC32)C1 (stereo not given in full)  normalized growth        0.981

Form field: reported normalized growth of `CC(=O)c1cc(CC=C(C)C)c(O)c(CC=C(C)C)c1`
1.02

Item: `C[C@H]1c2cccc(O)c2C(O)=C2C(=O)[C@]3(O)C(O)=C(C(N)=O)C(=O)[C@@H](N(C)C)[C@@H]3[C@@H](O)[C@@H]21`
0.963

====

assay: chemical genetic growth profiling, strain panel (AID 1159580); conditions: S. cerevisiae deletion strains, growth OD, locus YNL209W, strain ssb2, active compounds read low
The campaign covered roughly 5,500 compounds. About 2,000 (36%) were called active. Inconclusive results (about 18%) are left out. Some of the results follow.
READOUT KIND: normalized growth
I only need the number, thanks.

Some entries whose results are on file:
> print(dat)
                                   compound  test.result
1                        CC(=O)Oc1ccc(O)cc1        0.988
2  C/C=C\C1=C(C(=O)O)N2C(=O)C(NC(=O)C(N)c3ccc(O)cc3)C2SC1 (stereo unspecified)        0.997
3                           O=C(O)C1=CCCNC1         1.01

Returns the measured normalized growth for the input compound. Input: `COC(=O)/C(=C1\OC(=O)C(c2ccccc2)=C1O)c1ccccc1`
0.967

Try this compound next: `CC(=O)Oc1ccc(C(c2ccc(OC(C)=O)cc2)c2ccccn2)cc1`
1

# iterate: `CCCSc1ccc2nc(NC(=O)OC)[nH]c2c1`
1

====

test: chemical genetic growth profiling, strain panel (AID 1159580);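 further: tested at 20 µM; growth read once vehicle control cultures reached saturation at 30 °C; 1 = growth at the plate median or of vehicle wells; lower values mean less growth of the strain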; settings: S. cerevisiae deletion strains, growth OD, locus YLR342W, strain FKS1
About 2,000 (36%) of roughly 5,500 compounds were called active. About 18% were inconclusive and are not listed. Rule as the data show it: active = normalized growth mostly below about 0.91 (no sharp cut-off); inconclusive = no clear call, values can overlap the other calls; inactive = mostly above about 0.92. The list shows a part of the results.
One label from this list, please: active, inactive

COMPOUND	LABEL
CC(=O)O[C@@H]1CC2C(C)(C)[C@H](O)C=C[C@]2(C)C2CC[C@]3(C)C(=CC(=O)O[C@H]3c3ccoc3)[C@@]21C (some centres undefined)	inactive
CN(C)CCCN1c2ccccc2Sc2ccc(Cl)cc21	active
C[C@H]1c2cccc(O)c2C(O)=C2C(=O)[C@]3(O)C(O)=C(C(N)=O)C(=O)[C@@H](N(C)C)[C@@H]3[C@@H](O)[C@@H]21	inactive
CC(=O)O[C@@H]1C=C[C@@]2(C)C(C[C@@H](OC(C)=O)[C@@]3(C)C4=CC(=O)O[C@@H](c5ccoc5)[C@]4(C)CCC23)C1(C)C (some centres undefined)	inactive
CS(=O)(=O)c1ccc([C@@H](O)[C@@H](CO)NC(=O)C(Cl)Cl)cc1	inactive

Status in this test for CC(=O)O[C@H]1CC[C@@]2(C)C(C[C@@H](OC(C)=O)[C@@]3(C)C4=CC(=O)O[C@@H](c5ccoc5)[C@]4(C)CCC23)C1(C)C (some centres undefined) ?
inactive

Could you do the same for `CN(C)[C@@H]1C(=O)C(C(N)=O)=C(O)[C@@]2(O)C(=O)C3=C(O)c4c(O)ccc(Cl)c4[C@@H](O)[C@H]3C[C@@H]12` , please?
inactive

Again, but for `CN(C)CCCN1c2ccccc2Sc2ccc(C(F)(F)F)cc21`
inactive

// query: `Cc1cc(=O)oc2cc(O)c(O)cc12`
inactive

Also, `O=C1NC(O)=NC1(c1ccccc1)c1ccccc1` please.
inactive

CC(CCc1ccccc1)NCC(O)c1ccc(O)c(C(N)=O)c1 (centres undefined) , same question.
inactive

Now this one: CCC(C)[C@H]1O[C@]2(C=C[C@@H]1C)C[C@@H]1C[C@@H](C/C=C(\C)[C@@H](OC3C[C@H](OC)C(O[C@H]4C[C@H](OC)[C@@H](O)[C@H](C)O4)[C@H](C)O3)[C@@H](C)/C=C/C=C3\CO[C@@H]4[C@H](O)C(C)=C[C@@H](C(=O)O1)[C@]34O)O2 (some centres undefined)
active

Also check CC12CCC(=O)C=C1CCC1C2[C@@H](O)CC2(C)C1CC[C@]2(O)C(=O)COP(=O)(O)O (some centres undefined)
inactive

Entry CC(C)(C)NCC(O)c1ccc(O)c(CO)c1 (centres undefined) please
inactive

Try this compound next: `NS(=O)(=O)c1cc2c(cc1Cl)NC(CSCc1ccccc1)=NS2(=O)=O`
inactive

And the next one, `COc1ccc2cc(CCC(C)=O)ccc2c1` ?
inactive

Also CC(Cc1cccc(C(F)(F)F)c1)NCCOC(=O)c1ccccc1 (centres undefined) , if possible.
active

// same read-out, input: `C=C1c2cccc(O)c2C(O)=C2C(=O)[C@]3(O)C(O)=C(C(N)=O)C(=O)[C@@H](N(C)C)[C@@H]3[C@@H](O)[C@H]12`
inactive

Also, `CCCSc1ccc2nc(NC(=O)OC)[nH]c2c1` please.
inactive

====

test: chemical genetic growth profiling, strain panel (AID 1159580);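 further: tested at 20 µM; growth read once vehicle control cultures reached saturation at 30 °C; 1 = growth at the plate median or of vehicle wells; lower values mean less growth of the strain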; details: S. cerevisiae deletion strains, growth OD, locus YDR054C, strain cdc34, active compounds read low
In all, about 5,500 compounds went through this assay and about 2,000 (36%) were called active. Roughly 18% stayed inconclusive and do not appear here. The list shows a part of the results.
READOUT KIND: normalized growth
Give the figure by itself; no unit, no explanation.

# annotated cases, reported normalized growth shown
> print(dat)
                                   compound       readout.kind  test.result
1  CC(C)(C)c1cc(C(=O)NNc2cccc(Cl)c2)n(Cc2ccccc2)n1  normalized growth        0.979
2  O=S(=O)(Nc1ccccc1Oc1ccccc1)c1ccc(-c2ccno2)s1  normalized growth        0.965

What value of measured normalized growth is listed for `COC(=O)c1sccc1NS(=O)(=O)c1cc(Cl)cc(Cl)c1` ?
0.944

Entry to check: `Cc1ccc(-n2cccc2)c(NS(=O)(=O)c2ccc(-c3ccno3)s2)c1`
0.941

Follow-up item: `Clc1ccc(CN2CCN(c3cccc4[nH]ccc34)CC2)cc1Cl`
0.993

Try this compound too: O=C(CSC1=NNC(c2ccccn2)S1)Nc1ccccc1 (stereo unspecified)
1

====

test: chemical genetic growth profiling, strain panel (AID 1159580);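 further: tested at 20 µM; growth read once vehicle control cultures reached saturation at 30 °C; 1 = growth at the plate median or of vehicle wells; lower values mean less growth of the strain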; conditions: S. cerevisiae deletion strains, growth OD, locus YKL085W, strain MDH1, active compounds read low
The whole screen tested about 5,500 compounds, of which about 2,000 (36%) were called active. Not shown: some 18% with an inconclusive outcome. This is one part of the list.
Listed next: entries and their corresponding normalized growth.
Give only the figure.

Endpoint output: normalized growth of `CN(C)C(=O)Oc1cccc([N+](C)(C)C)c1` . Value?
0.985

Also `C=C1C[C@]23C[C@@]1(O)CC[C@H]2[C@@]12C=C[C@H](O)[C@@](C)(C(=O)O1)[C@H]2[C@@H]3C(=O)O` ?
0.99

Now consider `COc1cc(C/C=C/c2ccccc2)c(OC)cc1O` and answer again.
0.965

Input `CCOC(=O)NNc1nncc2ccccc12`
0.992

Follow-up entry: CC(C)CCCC(C)[C@H]1CCC2C3CC=C4C[C@@H](O)CC[C@]4(C)C3CC[C@@]21C (stereo partly specified)
0.999

For `Oc1c(Cl)cc(Cl)cc1Sc1cc(Cl)cc(Cl)c1O` then?
0.973

Moving on to `CC(=O)c1cc(CC=C(C)C)c(O)c(CC=C(C)C)c1`
0.967

Repeat with `CNNC`
1.01

Try this compound next: `NCCCCCCNS(=O)(=O)c1cccc2c(Cl)cccc12`
0.991

Follow-up entry: `OC[C@H]1O[C@@](CO)(O[C@@H]2O[C@H](CO)[C@@H](O)[C@H](O)[C@H]2O)[C@@H](O[C@@H]2O[C@H](CO)[C@@H](O)[C@H](O)[C@H]2O)[C@@H]1O`
1.01

And then CC1(C)CC2C1CC[C@]1(CBr)CCC3C(CC(=O)O)C(=O)O[C@@]32C1 (stereo partly specified) , what is it?
0.995

Note, next up: `CC(=O)Oc1cccc(O)c1`
1

Try `CC(C)=CCc1c2c(c3occ(-c4ccc(O)cc4)c(=O)c3c1O)C=CC(C)(C)O2` next.
1.02

Now try CC(=O)O[C@H]1CC[C@@]2(C)C(=CC(=O)C3C4CCC(C(C)CCCC(C)C)[C@@]4(C)CCC32)C1 (stereo partly specified) .
1

Field entry: `O=C(OCc1ccccc1)c1ccccc1`
0.957

What do you get for `C[C@H]1c2cccc(O)c2C(O)=C2C(=O)[C@]3(O)C(O)=C(C(N)=O)C(=O)[C@@H](N(C)C)[C@@H]3[C@@H](O)[C@@H]21` ?
0.972

Field entry: `CCCc1c(OCCCCc2nn[nH]n2)ccc(C(C)=O)c1O`
0.999

Proceed to Cc1ccc2c(c1)C1(C)CCCC(C)(C(=O)O)C1CC2 (stereo unspecified)
0.997

Reference source for all entries: PubChem BioAssay AID1159580
